Numbers sourced from patent US11981658B2.

Entries and their measured IC50 follow.
Target: EGFR wildtype (WT) (Homo sapiens, UniProt P00533)
Sequence (P00533 25-1210): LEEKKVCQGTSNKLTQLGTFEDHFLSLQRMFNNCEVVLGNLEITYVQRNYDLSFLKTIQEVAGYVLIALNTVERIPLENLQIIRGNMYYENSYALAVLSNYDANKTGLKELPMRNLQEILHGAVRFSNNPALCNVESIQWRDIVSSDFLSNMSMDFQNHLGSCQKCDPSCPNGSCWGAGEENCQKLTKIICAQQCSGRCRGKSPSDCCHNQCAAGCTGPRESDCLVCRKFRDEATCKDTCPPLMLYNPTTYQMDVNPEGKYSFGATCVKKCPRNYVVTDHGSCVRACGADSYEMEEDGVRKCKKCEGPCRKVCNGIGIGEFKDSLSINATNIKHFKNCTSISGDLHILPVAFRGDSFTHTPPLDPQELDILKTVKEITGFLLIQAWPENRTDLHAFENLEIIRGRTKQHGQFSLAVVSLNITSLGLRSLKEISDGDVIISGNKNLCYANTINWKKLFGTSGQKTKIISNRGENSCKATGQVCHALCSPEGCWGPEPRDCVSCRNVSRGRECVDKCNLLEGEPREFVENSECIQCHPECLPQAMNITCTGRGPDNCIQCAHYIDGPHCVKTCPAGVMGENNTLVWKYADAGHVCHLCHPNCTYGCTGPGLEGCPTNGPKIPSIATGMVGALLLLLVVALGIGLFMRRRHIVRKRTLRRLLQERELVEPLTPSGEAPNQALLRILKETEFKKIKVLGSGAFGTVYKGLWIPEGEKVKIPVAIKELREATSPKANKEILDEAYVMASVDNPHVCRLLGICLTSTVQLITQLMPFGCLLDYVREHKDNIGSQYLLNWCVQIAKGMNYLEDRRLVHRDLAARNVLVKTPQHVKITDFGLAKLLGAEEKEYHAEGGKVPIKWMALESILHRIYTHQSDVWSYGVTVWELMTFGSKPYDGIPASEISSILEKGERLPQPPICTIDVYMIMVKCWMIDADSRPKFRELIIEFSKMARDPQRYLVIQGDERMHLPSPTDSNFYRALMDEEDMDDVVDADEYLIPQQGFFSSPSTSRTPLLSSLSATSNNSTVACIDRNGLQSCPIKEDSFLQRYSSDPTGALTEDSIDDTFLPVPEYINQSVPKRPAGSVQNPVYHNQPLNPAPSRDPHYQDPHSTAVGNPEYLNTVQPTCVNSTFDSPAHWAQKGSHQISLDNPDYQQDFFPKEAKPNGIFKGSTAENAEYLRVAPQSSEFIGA
Test: Biochemical EGFR kinase inhibition assay (Lance Ultra TR-FRET), wildtype
Conditions: ATP at Km; read-out: IC50 WT (nM), Km ATP
outcome_measure: IC50

1) CN(C)C(=O)c1ccc(C#Cc2cnc(Nc3ccnc(-c4cnn(S(=O)(=O)C5CC5)c4)n3)cc2N2CCC(C)(CO)CC2)cc1 [Example 262]; 4.4 nM
2) CC1(CO)CCN(c2cc(Nc3ccnc(-c4cnn(S(=O)(=O)C5CC5)c4)n3)ncc2C#CC2CCCCC2)CC1 [Example 252]; 235 nM
3) CN(C)CC1CCN(c2cc(Nc3ccnc(-c4cnn(S(=O)(=O)C5CC5)c4)n3)ncc2C#Cc2cnn(C3CC3)c2)CC1 [Example 298]; 23 nM
4) CC1(CO)CCN(c2cc(Nc3ccnc(-c4cnn(S(=O)(=O)C5CC5)c4)n3)ncc2C#Cc2ccc(CN3CCOCC3)nc2)CC1 [Example 187]; 3.9 nM

----------
Entries and their measured log10(IC50) follow.
Molecular target: EGFR Del19/C797S (Homo sapiens, UniProt P00533, C797S/DEL746-750)
Sequence (P00533 with tags, fused parts or gaps DEL746-750/C797S): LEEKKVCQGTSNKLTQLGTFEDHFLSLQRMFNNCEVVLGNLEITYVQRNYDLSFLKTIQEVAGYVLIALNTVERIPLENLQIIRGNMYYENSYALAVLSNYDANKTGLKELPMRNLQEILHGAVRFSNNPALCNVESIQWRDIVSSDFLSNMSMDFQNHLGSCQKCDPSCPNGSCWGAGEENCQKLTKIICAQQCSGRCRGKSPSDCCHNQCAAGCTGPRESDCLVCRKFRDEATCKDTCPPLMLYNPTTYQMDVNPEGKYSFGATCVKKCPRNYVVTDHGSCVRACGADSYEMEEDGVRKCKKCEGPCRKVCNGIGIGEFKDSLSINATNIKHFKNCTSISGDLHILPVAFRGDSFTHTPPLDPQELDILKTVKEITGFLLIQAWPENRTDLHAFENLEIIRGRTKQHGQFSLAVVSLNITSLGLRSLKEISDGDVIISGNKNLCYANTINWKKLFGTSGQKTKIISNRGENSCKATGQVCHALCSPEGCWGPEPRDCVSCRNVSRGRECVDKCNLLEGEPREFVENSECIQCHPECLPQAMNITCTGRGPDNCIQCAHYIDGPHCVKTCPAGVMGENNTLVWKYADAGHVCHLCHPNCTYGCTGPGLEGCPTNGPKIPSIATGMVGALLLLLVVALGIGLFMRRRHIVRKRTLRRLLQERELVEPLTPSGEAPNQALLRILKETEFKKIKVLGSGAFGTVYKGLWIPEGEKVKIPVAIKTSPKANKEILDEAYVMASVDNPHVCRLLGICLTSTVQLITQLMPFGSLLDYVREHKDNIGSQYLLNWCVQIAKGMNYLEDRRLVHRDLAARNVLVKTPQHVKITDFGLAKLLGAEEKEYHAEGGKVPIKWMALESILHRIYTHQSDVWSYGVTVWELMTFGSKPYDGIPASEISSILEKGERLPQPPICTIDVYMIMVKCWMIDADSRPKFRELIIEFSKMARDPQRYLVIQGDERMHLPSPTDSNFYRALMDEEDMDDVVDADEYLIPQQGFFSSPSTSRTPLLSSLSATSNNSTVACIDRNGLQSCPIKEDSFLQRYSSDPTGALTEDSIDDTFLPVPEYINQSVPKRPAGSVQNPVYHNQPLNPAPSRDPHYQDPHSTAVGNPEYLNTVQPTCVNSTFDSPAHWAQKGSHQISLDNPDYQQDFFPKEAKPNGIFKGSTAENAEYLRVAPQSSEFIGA
Assay: Biochemical EGFR kinase inhibition assay (Lance Ultra TR-FRET), double mutant del19/C797S
Conditions: IC50 Del19/C797S (nM), 100 μM ATP
outcome_measure: log10(IC50) (log10 of the value in nM)

1) O=S(=O)(C1CC1)n1cc(-c2nccc(Nc3cc(N4CCC(O)CC4)c(C#Cc4cnn(CCF)c4)cn3)n2)cn1; 0.69
2) CN(C)Cc1cccc(C#Cc2cnc(Nc3ccnc(-c4cnn(S(=O)(=O)C5CC5)c4)n3)cc2N2CCC(C)(CO)CC2)c1; -0.40
3) CC1(O)CCN(c2cc(Nc3ccnc(-c4cnn(S(=O)(=O)C5CC5)c4)n3)ncc2C#CC2CC3CCC2O3)CC1 (stereo not drawn); 0.38
4) CN1CCN(Cc2ccc(C#Cc3cnc(Nc4ccnc(-c5cnn(S(=O)(=O)C6CC6)c5)n4)cc3NC[C@H]3CC[C@H](O)CC3)cc2)CC1; 0.63
5) CN1CCn2ncc(C#Cc3cnc(Nc4ccnc(-c5cnn(S(=O)(=O)C6CC6)c5)n4)cc3N3CCC(C)(CO)CC3)c2C1; -0.15
6) Cn1cc(C#Cc2cnc(Nc3ccnc(-c4cnn(S(=O)(=O)C5CC5)c4)n3)cc2N2CCC3(CCNCC3)C2)cn1; 1.08

----------
Target: EGFR L858R/T790M/C797S (Homo sapiens, UniProt P00533, C797S/L858R/T790M)
Sequence (P00533 25-1210 T790M/C797S/L858R): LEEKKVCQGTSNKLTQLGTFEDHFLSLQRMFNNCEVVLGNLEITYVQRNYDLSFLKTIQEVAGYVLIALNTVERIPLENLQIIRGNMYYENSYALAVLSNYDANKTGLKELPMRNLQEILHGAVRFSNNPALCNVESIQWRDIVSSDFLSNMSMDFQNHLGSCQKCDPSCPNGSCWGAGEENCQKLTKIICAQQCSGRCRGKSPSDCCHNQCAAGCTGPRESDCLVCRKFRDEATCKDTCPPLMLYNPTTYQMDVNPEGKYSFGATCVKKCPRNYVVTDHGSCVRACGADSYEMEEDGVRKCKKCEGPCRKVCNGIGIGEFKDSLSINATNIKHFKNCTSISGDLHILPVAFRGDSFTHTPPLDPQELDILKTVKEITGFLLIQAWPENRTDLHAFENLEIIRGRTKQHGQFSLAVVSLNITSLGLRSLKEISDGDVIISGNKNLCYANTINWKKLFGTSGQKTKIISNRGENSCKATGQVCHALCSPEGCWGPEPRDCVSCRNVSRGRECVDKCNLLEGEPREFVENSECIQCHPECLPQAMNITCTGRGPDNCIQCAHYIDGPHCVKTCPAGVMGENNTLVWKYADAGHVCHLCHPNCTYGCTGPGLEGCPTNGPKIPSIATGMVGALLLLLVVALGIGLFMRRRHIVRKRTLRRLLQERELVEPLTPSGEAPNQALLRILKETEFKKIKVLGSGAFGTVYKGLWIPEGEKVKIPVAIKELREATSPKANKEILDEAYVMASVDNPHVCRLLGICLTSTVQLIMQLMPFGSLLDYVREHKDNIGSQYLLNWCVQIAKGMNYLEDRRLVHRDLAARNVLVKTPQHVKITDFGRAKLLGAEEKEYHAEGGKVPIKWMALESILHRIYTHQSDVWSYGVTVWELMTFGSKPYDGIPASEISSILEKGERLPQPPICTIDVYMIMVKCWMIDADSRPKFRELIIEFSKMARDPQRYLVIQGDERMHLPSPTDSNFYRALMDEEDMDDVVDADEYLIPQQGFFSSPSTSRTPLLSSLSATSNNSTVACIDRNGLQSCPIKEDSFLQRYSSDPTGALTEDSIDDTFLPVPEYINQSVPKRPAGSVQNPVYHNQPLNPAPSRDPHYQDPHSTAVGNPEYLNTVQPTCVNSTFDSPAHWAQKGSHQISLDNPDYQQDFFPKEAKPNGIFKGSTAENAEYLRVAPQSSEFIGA
Assay: Biochemical EGFR kinase inhibition assay (Lance Ultra TR-FRET), triple mutant L858R/T790M/C797S
Details: IC50 L858R/T790M/C797S (nM), 100 μM ATP
outcome_measure: IC50 (nM)

1. Cn1cc(C#Cc2cnc(Nc3ccnc(-c4cnn(S(=O)(=O)C5CC5)c4)n3)cc2N2CCCC(CO)CC2)cn1 (stereo not shown); 5.9
2. CC1(CO)CCN(c2cc(Nc3ccnc(-c4cnn(S(=O)(=O)C5CC5)c4)n3)ncc2C#CCCF)CC1; 0.5
3. CC1(CO)CCN(c2cc(Nc3ccnc(-c4cnn(S(=O)(=O)C5CC5)c4)n3)ncc2C#Cc2ccc(C(=O)N3CCOCC3)cc2)CC1; 1.2
4. CC(O)C1CCN(c2cc(Nc3ccnc(-c4cnn(S(=O)(=O)C5CC5)c4)n3)ncc2C#Cc2cnn(C(F)(F)F)c2)CC1 (stereo not shown); 22.7
5. O=S(=O)(C1CC1)n1cc(-c2nccc(Nc3cc(N4CCCC(O)C4)c(C#Cc4cnn(C5CCOCC5)c4)cn3)n2)cn1 (stereo not shown); 3
6. CN1CCN(C2CCN(c3cc(Nc4ccnc(-c5cnn(S(=O)(=O)C6CC6)c5)n4)ncc3C#Cc3ccsc3)CC2)CC1; 1.1
7. CC1(CO)CCN(c2cc(Nc3ccnc(-c4cnn(S(=O)(=O)C5CC5)c4)n3)ncc2C#Cc2cnn(CC3CCCOC3)c2)CC1 (stereo not shown); 3.9
8. CN(C)CC1CCN(c2cc(Nc3ccnc(-c4cnn(S(=O)(=O)C5CC5)c4)n3)ncc2C#Cc2cnn(C)c2)CC1; 2.4
9. Cn1cc(C#Cc2cnc(Nc3ccnc(-c4cnn(S(=O)(=O)C5CC5)c4)n3)cc2N2CC(C(C)(C)O)C2)cn1; 2.4
10. CC(C)(O)[C@H]1CC[C@@H](Nc2cc(Nc3ccnc(-c4cnn(S(=O)(=O)C5CC5)c4)n3)ncc2C#Cc2cnn(C(F)(F)F)c2)CC1; 10.9
11. CC1(CO)CCN(c2cc(Nc3ccnc(-c4cnn(S(=O)(=O)C5CC5)c4)n3)ncc2C#Cc2cnn(CC3CC3)c2)CC1; 9.1
12. O=S(=O)(C1CC1)n1cc(-c2nccc(Nc3cc(N4CCCC(O)C4)c(C#Cc4ccc(N5CCOCC5)nc4)cn3)n2)cn1 (stereo not shown); 18.3
13. Cn1cc(C#Cc2cnc(Nc3ccnc(-c4cnn(S(=O)(=O)C5CC5)c4)n3)cc2N2CCCC(C(F)(F)F)C2)cn1 (stereo not shown); 52.6
